# Species: Rattus norvegicus
# ASSAY PROTOCOL: Open TG-GATES - Regimen: Daily Repeat
# Assay type: toxicity, organism-based, Sprague-Dawley
# Set-up: regimen Daily Repeat, gender Male, age 6 weeks
# ASSAY CONDITIONS: in vivo, po, 0 mg/kg, 72 h, tissue Blood, route gavage, dose level Control, time 3 day
Some compounds, each annotated with its measured Bas.

COMPOUND: O=C1CN(/N=C/c2ccc(-c3ccc([N+](=O)[O-])cc3)o2)C(O)=N1
Bas: 0%

COMPOUND: O=C1NC(=O)C(c2ccccc2)(c2ccccc2)N1
Bas: 0%

COMPOUND: CS(=O)(=O)Nc1ccc([N+](=O)[O-])cc1Oc1ccccc1 [NIMESULIDE]
Bas: 0%

COMPOUND: C=CCO
Bas: 0%

COMPOUND: Cn1c(=O)c2c(ncn2C)n(C)c1=O
Bas: 0%

COMPOUND: O=P1(N(CCCl)CCCl)NCCCO1 (stereo unspecified) [CYCLOPHOSPHAMIDE ANHYDROUS]
Bas: 0%

COMPOUND: COc1ccc(Cl)cc1C(=O)NCCc1ccc(S(=O)(=O)NC(=O)NC2CCCCC2)cc1 [GLYBURIDE]
Bas: 0%

COMPOUND: COc1ccc(O)c(C(C)(C)C)c1.COc1ccc(O)cc1C(C)(C)C [BUTYLATED HYDROXYANISOLE]
Bas: 0.2%

COMPOUND: Cc1cccc(Nc2cc(Cl)nc(SCC(=O)O)n2)c1C
Bas: 0%

COMPOUND: Cn1cnc([N+](=O)[O-])c1Sc1ncnc2nc[nH]c12
Bas: 0%

COMPOUND: Cc1cnc(NC(=O)C2=C(O)c3ccccc3S(=O)(=O)N2C)s1
Bas: 0.8%

---

# Organism: Rattus norvegicus
# ASSAY PROTOCOL: Open TG-GATES - Regimen: Single
# Type: toxicity, organism-based, Sprague-Dawley
# Design: regimen Single, gender Male, age 6 weeks
# ASSAY CONDITIONS: in vivo, po, 0 mg/kg, 6 h, tissue Plasma, route gavage, dose level Control
Some molecules, each annotated with its measured TBIL.
METRIC: TBIL (mg/dL)

MOLECULE: Cc1cccc(Nc2cc(Cl)nc(SCC(=O)O)n2)c1C [PIRINIXIC ACID]
SCALE UNIT: mg/dL
MEASURED NUMBER: 0.046
//
MOLECULE: S=C=Nc1cccc2ccccc12 [1-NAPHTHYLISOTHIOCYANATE]
SCALE UNIT: mg/dL
MEASURED NUMBER: 0.1
//
MOLECULE: COc1ccc(O)c(C(C)(C)C)c1.COc1ccc(O)cc1C(C)(C)C [BUTYLATED HYDROXYANISOLE]
SCALE UNIT: mg/dL
MEASURED NUMBER: 0.074
//
MOLECULE: Cn1cnc([N+](=O)[O-])c1Sc1ncnc2nc[nH]c12 [AZATHIOPRINE]
SCALE UNIT: mg/dL
MEASURED NUMBER: 0.014
//
MOLECULE: Cc1cnc(NC(=O)C2=C(O)c3ccccc3S(=O)(=O)N2C)s1 [MELOXICAM]
SCALE UNIT: mg/dL
MEASURED NUMBER: 0.1

---

# Species: Rattus norvegicus
# ASSAY PROTOCOL: Open TG-GATES - Regimen: Single
# Assay type: toxicity, organism-based, Sprague-Dawley
# Design: regimen Single, gender Male, age 6 weeks
# ASSAY CONDITIONS: in vivo, po, 0 mg/kg, 9 h, tissue Blood, route gavage, dose level Control
Please use class 1 whenever Ret is not below 8%, and class 0 whenever it is.

COMPOUND: C=CCO
ASSIGNED CATEGORY: class 0
--
COMPOUND: S=C=Nc1cccc2ccccc12 [1-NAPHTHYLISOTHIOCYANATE]
ASSIGNED CATEGORY: class 0
--
COMPOUND: CS(=O)(=O)Nc1ccc([N+](=O)[O-])cc1Oc1ccccc1 [NIMESULIDE]
ASSIGNED CATEGORY: class 1
--
COMPOUND: Cn1cnc([N+](=O)[O-])c1Sc1ncnc2nc[nH]c12
ASSIGNED CATEGORY: class 1
--
COMPOUND: O=C1NC(=O)C(c2ccccc2)(c2ccccc2)N1
ASSIGNED CATEGORY: class 0

---

# Species on record: Rattus norvegicus
# ASSAY PROTOCOL: Open TG-GATES - Regimen: Single
# Format: toxicity, organism-based, Sprague-Dawley
# Parameters: regimen Single, gender Male, age 6 weeks
# ASSAY CONDITIONS: in vivo, po, 0 mg/kg, 9 h, tissue Plasma, route gavage, dose level Control
Some compounds, each annotated with its measured ALP.

COMPOUND: C=CCO
ALP / IU/L: 880.4
--
COMPOUND: CNCCC(Oc1ccc(C(F)(F)F)cc1)c1ccccc1.Cl (stereo unspecified) [FLUOXETINE HYDROCHLORIDE]
ALP / IU/L: 1190.2
--
COMPOUND: O=C1NC(=O)C(c2ccccc2)(c2ccccc2)N1
ALP / IU/L: 1437.2
--
COMPOUND: COc1ccc(O)c(C(C)(C)C)c1.COc1ccc(O)cc1C(C)(C)C [BUTYLATED HYDROXYANISOLE]
ALP / IU/L: 1620.2
--
COMPOUND: CS(=O)(=O)Nc1ccc([N+](=O)[O-])cc1Oc1ccccc1 [NIMESULIDE]
ALP / IU/L: 898.6
--
COMPOUND: S=C=Nc1cccc2ccccc12 [1-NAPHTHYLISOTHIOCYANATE]
ALP / IU/L: 908.4
--
COMPOUND: O=C1CN(/N=C/c2ccc(-c3ccc([N+](=O)[O-])cc3)o2)C(O)=N1
ALP / IU/L: 881.6
--
COMPOUND: Cc1cnc(NC(=O)C2=C(O)c3ccccc3S(=O)(=O)N2C)s1
ALP / IU/L: 910.8
--
COMPOUND: Cc1cccc(Nc2cc(Cl)nc(SCC(=O)O)n2)c1C
ALP / IU/L: 1428
--
COMPOUND: Cn1cnc([N+](=O)[O-])c1Sc1ncnc2nc[nH]c12
ALP / IU/L: 1520.4
--
COMPOUND: COc1ccc(Cl)cc1C(=O)NCCc1ccc(S(=O)(=O)NC(=O)NC2CCCCC2)cc1 [GLYBURIDE]
ALP / IU/L: 1066.8

---

# Species: Rattus norvegicus
# ASSAY PROTOCOL: Open TG-GATES - Regimen: Single
# Assay type: toxicity, organism-based, Sprague-Dawley
# Design: regimen Single, gender Male, age 6 weeks
# ASSAY CONDITIONS: in vivo, po, 0 mg/kg, 9 h, tissue Plasma, route gavage, dose level Control
Some compounds, each annotated with its measured TG.
METRIC: TG (mg/dL)

COMPOUND: O=C1NC(=O)C(c2ccccc2)(c2ccccc2)N1 [PHENYTOIN]
METRIC: TG
MEASURED NUMBER: 40
//
COMPOUND: Cc1cccc(Nc2cc(Cl)nc(SCC(=O)O)n2)c1C [PIRINIXIC ACID]
METRIC: TG
MEASURED NUMBER: 53.6
//
COMPOUND: Cn1cnc([N+](=O)[O-])c1Sc1ncnc2nc[nH]c12 [AZATHIOPRINE]
METRIC: TG
MEASURED NUMBER: 46.2
//
COMPOUND: S=C=Nc1cccc2ccccc12 [1-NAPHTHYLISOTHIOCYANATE]
METRIC: TG
MEASURED NUMBER: 50.8
//
COMPOUND: CS(=O)(=O)Nc1ccc([N+](=O)[O-])cc1Oc1ccccc1 [NIMESULIDE]
METRIC: TG
MEASURED NUMBER: 47.6
//
COMPOUND: COc1ccc(Cl)cc1C(=O)NCCc1ccc(S(=O)(=O)NC(=O)NC2CCCCC2)cc1 [GLYBURIDE]
METRIC: TG
MEASURED NUMBER: 52.2

---

# Organism: Rattus norvegicus
# ASSAY PROTOCOL: Open TG-GATES - Regimen: Single
# Type: toxicity, organism-based, Sprague-Dawley
# Design: regimen Single, gender Male, age 6 weeks
# ASSAY CONDITIONS: in vivo, po, 0 mg/kg, 9 h, tissue Kidney, route gavage, dose level Control
METRIC: KIDNEY_L

MOLECULE: S=C=Nc1cccc2ccccc12 [1-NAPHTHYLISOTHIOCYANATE]
RESULT: 0.9 g
//
MOLECULE: Cn1cnc([N+](=O)[O-])c1Sc1ncnc2nc[nH]c12 [AZATHIOPRINE]
RESULT: 0.9 g
//
MOLECULE: Cc1cccc(Nc2cc(Cl)nc(SCC(=O)O)n2)c1C [PIRINIXIC ACID]
RESULT: 0.9 g
//
MOLECULE: O=C1NC(=O)C(c2ccccc2)(c2ccccc2)N1 [PHENYTOIN]
RESULT: 0.9 g
//
MOLECULE: Cc1cnc(NC(=O)C2=C(O)c3ccccc3S(=O)(=O)N2C)s1 [MELOXICAM]
RESULT: 1 g
//
MOLECULE: CNCCC(Oc1ccc(C(F)(F)F)cc1)c1ccccc1.Cl (stereo unspecified) [FLUOXETINE HYDROCHLORIDE]
RESULT: 1 g
//
MOLECULE: COc1ccc(O)c(C(C)(C)C)c1.COc1ccc(O)cc1C(C)(C)C [BUTYLATED HYDROXYANISOLE]
RESULT: 0.9 g
//
MOLECULE: O=C1CN(/N=C/c2ccc(-c3ccc([N+](=O)[O-])cc3)o2)C(O)=N1 [DANTROLENE]
RESULT: 0.9 g
//
MOLECULE: COc1ccc(Cl)cc1C(=O)NCCc1ccc(S(=O)(=O)NC(=O)NC2CCCCC2)cc1 [GLYBURIDE]
RESULT: 0.9 g
//
MOLECULE: CS(=O)(=O)Nc1ccc([N+](=O)[O-])cc1Oc1ccccc1 [NIMESULIDE]
RESULT: 0.9 g
//
MOLECULE: C=CCO [ALLYL ALCOHOL]
RESULT: 1 g
